Attribution: patent US20250101135A1

ASSAY SYSTEM: T1, monomeric human CD19 antigen Fc(kih) fusion molecule (human, UniProt P0DOX5 223-449 = IgG part)
T1 construct: also called monomeric CD19-Fc; human CD19-Fc(kih)
PROTOCOL DETAILS: SPR ProteOn XPR36, IgG from HEK supernatant captured via anti-human Fab, monomeric CD19-Fc analyte, 1:1 Langmuir
Measured Kd, listed per entry.
The reply should contain only the number, in pM.

binder="anti-CD19 clone 8B8-5H09 in P329GLALA human IgG1 format (antibody, V domains shown) VH: QVQLVQSGAEVKKPGASVKVSCKASGYTFTDYIMHWVRQAPGQGLEWMGYINPYNDGSKYTEKFQGRVTMTSDTSISTAYMELSRLRSDDTAVYYCARGTYYYGSALFDYWGQGTTVTVSS VL: DIVMTQTPLSLSVTPGQPASISCKSSQSLESSTGNTYLNWYLQKPGQSPQLLIYRVSKRFSGVPDRFSGSGSGTDFTLKISRVEAEDVGVYYCLQLIDYPVTFGQGTKLEIKR" units_symbol=pM recorded_value=189
binder="anti-CD19 clone 8B8-5B08 in P329GLALA human IgG1 format (antibody, V domains shown) VH: QVQLVQSGAEVKKPGASVKVSCKASGYTFTDYIMHWVRQAPGQGLEWMGYINPYNDGSKYTEKFQGRVTMTSDTSISTAYMELSRLRSDDTAVYYCARGTYYYGPQLFDYWGQGTTVTVSS VL: DIVMTQTPLSLSVTPGQPASISCKSSQSLETSTGNTYLNWYLQKPGQSPQLLIYRVSKRFSGVPDRFSGSGSGTDFTLKISRVEAEDVGVYYCLQLDSYPNTFGQGTKLEIKR" units_symbol=pM recorded_value=772
binder="anti-CD19 clone 8B8-5D08 in P329GLALA human IgG1 format (antibody, V domains shown) VH: QVQLVQSGAEVKKPGASVKVSCKASGYTFTDYIMHWVRQAPGQGLEWMGYINPYNDGSKYTEKFQGRVTMTSDTSISTAYMELSRLRSDDTAVYYCARGTYYYGSELFDYWGQGTTVTVSS VL: DIVMTQTPLSLSVTPGQPASISCKSSQSLETSTGNTYLNWYLQKPGQSPQLLIYRVSKRFSGVPDRFSGSGSGTDFTLKISRVEAEDVGVYYCLQLTHEPYTFGQGTKLEIKR" units_symbol=pM recorded_value=951

Given the entry anti-CD19 clone 8B8-7H07 in P329GLALA human IgG1 format (antibody, V domains shown) VH: QVQLVQSGAEVKKPGASVKVSCKASGYTFTDYIMHWVRQAPGQGLEWMGYINPYNDGSKYTEKFQGRVTMTSDTSISTAYMELSRLRSDDTAVYYCARGTYYYGSELFDYWGQGTTVTVSS VL: DIVMTQTPLSLSVTPGQPASISCKSSQSLETSTGNTYLNWYLQKPGQSPQLLIYRVSKRFSGVPDRFSGSGSGTDFTLKISRVEAEDVGVYYCLQATHIPYTFGQGTKLEIKR , report its measured Kd.
747

Same again, this time with anti-CD19 clone 8B8-2B11 in P329GLALA human IgG1 format (antibody, V domains shown) VH: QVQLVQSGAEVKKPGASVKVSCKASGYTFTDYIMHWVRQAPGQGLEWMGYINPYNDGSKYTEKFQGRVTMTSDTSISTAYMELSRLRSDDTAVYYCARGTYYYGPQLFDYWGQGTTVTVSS VL: DIVMTQTPLSLSVTPGQPASISCKSSQSLETSTGTTYLNWYLQKPGQSPQLLIYRVSKRFSGVPDRFSGSGSGTDFTLKISRVEAEDVGVYYCLQLLEDPYTFGQGTKLEIKR
495
